# ASSAY: MTS viability (toxicity) assay of cells expressing pluripotency markers
# Format: cell-based, human
# SETTINGS: human, cmpd conc 10 μM; MTS on day 4; relative to Activin A + Wnt3a positive control; read-out: % Control (percentage viability of control)
Threshold check on viability at 4 days, 10 μM: strictly below 50% is rule met; on or above 50% is rule not met.

Known results for molecules:
>  <MOLECULE>
COC(=O)c1cncc(-n2cc(C3=C(c4nn(CCO)c5ccccc45)C(=O)NC3=O)c3cc(Cl)ccc32)c1

>  <DISCRETE_LABEL>
rule met

$$$$
>  <MOLECULE>
O=C1NC(=O)C(c2nn(CCO)c3ccccc23)=C1c1cn(-c2cncnc2)c2ccccc12

>  <DISCRETE_LABEL>
rule not met

$$$$

Ask: Identify whether the molecule CN(C)CCCn1c2c(c3ccccc31)C1=C(C(=O)NC1=O)N(c1cccc(Cl)c1)C2 records viability at 4 days, 10 μM below 50%.
Result: rule met

Ask: Identify whether the molecule O=C1NC(=O)C(c2cn(-c3cccnc3)c3ccccc23)=C1c1cn(CCO)c2ccccc12 records viability at 4 days, 10 μM below 50%.
Result: rule met

Ask: Identify whether the molecule O=C1NC(=O)C(c2cn(CCOCCOCCO)c3ccccc23)=C1c1cn(CCO)c2ccccc12 records viability at 4 days, 10 μM below 50%.
Result: rule not met

Ask: Identify whether the molecule Cc1c[nH]c(-c2cnc(NCCNc3ccc(C#N)cn3)nc2-c2ccc(Cl)cc2Cl)n1 records viability at 4 days, 10 μM below 50%.
Result: rule not met

Ask: Identify whether the molecule CC(C)(O)CCn1nc(C2=C(c3cn(-c4cccnc4)c4ccccc34)C(=O)NC2=O)c2ccccc21 records viability at 4 days, 10 μM below 50%.
Result: rule not met

Ask: Identify whether the molecule OCCC#Cc1nc(-c2ccc(F)cc2)c(-c2ccncc2)n1CCCc1ccccc1 records viability at 4 days, 10 μM below 50%.
Result: rule not met

Ask: Identify whether the molecule O=C1NC(=O)C(c2nn(CCCO)c3ccccc23)=C1c1cn(-c2cccnc2)c2ccc(Cl)cc12 records viability at 4 days, 10 μM below 50%.
Result: rule met

Origin of values: patent US20130337564A1
